- test-name: yeast display, Sf9 membrane polyspecificity reagent, FACS + sequencing; frameworks hold sequencing errors

{"columns": ["input-sequence", "polyreactivity (PSR sort gate)"],
 "data": [
  ["QVQLVESGGGLVQAGGSLRLSCAASGRTISFNTMAWYRQAPGKERDLVAGIERGGSTNYADSVKVRFTISRDNAKNTVYFQMNSLKPEDTAVYYCAARNLRYRYRNYDYWGQGTQVTVSS", "high polyreactivity"],
  ["QVQLVESGGGLVQAGGSLRLSCAASGRTFYGYAMGWYRQAPGKERELVAAITSSGGSTYYADSVKGRFTISRDNAKNTVYLQMNSLKPEDTAVYYCAKTSRYLTGGGDYWGQGTQVTVSS", "high polyreactivity"],
  ["QGQLVESGGGLVQAGGSLSLSCAASRFTFQRYAMGWDRQAPGKERELVAAISVSGGRTYYADSVKGRFTISRDNAKNSVYLQMNSLKPEDTAVYYCAAEGFLGWYYYWGQGNQVTVSS", "high polyreactivity"],
  ["QVQLVESGRGLVQAGGSLPLSCAASGFIFRRYAMVWYRQAPGKERELVAGISRGGDSTYYADSVKGRFTISRDNAKNTVYLQMNSLKPEDTAVYFCAGQGRDSTPHGYWGQGTQVTVSS", "high polyreactivity"]
]}
